Target: T1, cell-bound cynomolgus DR5 (CHO-K1 cells transfected with the full length cynoDR5 gene) (cynomolgus)
T1 construct: whole, on cells
Experiment: FACS, periplasmic extract on CHO-K1 cells expressing cynomolgus DR5, anti-myc detection
mean count fluorescence: recorded values
ENDPOINT: mean count fluorescence

| BINDER | EXPERIMENTAL VALUE |
| --- | --- |
| 11H6 (monomeric anti-DR5 NB construct) (VHH, llama VHH; periplasmic extract or purified monovalent material from E. coli; also called 11H6 parent; wild type 11H6; not shown: C-terminal c-myc tag and (His)6 tag coded by the vector) VHH: EVQLVESGGGLVQPGGSLRLSCAASGTFDKINNMGWYRQAPGKQRDLVAQITPGGITDYADSVKGRFTISRDNAKDTMYLQMNSLKPEDTAVYFCNAEILKRAYIDVYVNYWGQGTQVTVSS | 292 |
| 4E6 (monomeric anti-DR5 NB construct) (VHH, llama VHH; periplasmic extract or purified monovalent material from E. coli; also called 4E6 parent; wild type 4E6; not shown: C-terminal c-myc tag and (His)6 tag coded by the vector) VHH: EVQLVESGGGSVQAGDSLRLSCAASGRTFGSIRVGWFRQTPGKEREFVAAINRNDGTTYYADSVKGRFTISRDNAKNTVYMQMASLKPEDTAVYYCAAGLQYNRSADRVPVGAVYWGQGTQVTVSS | 2870 |
| 11D1 (monomeric anti-DR5 NB construct) (VHH, llama VHH; periplasmic extract or purified monovalent material from E. coli; not shown: C-terminal c-myc tag and (His)6 tag coded by the vector) VHH: EVQLVESGGGLVQPGGSLRLSCAASGSIDSINNMGWYRQAPGKQRELVAEITPRGRTNYADSEKSRFTISRDNAKRTVNLQMNSLKPEDTAVYYCNAEVRERGTSWYRPDYWGQGTQVTVSS | 417 |
| 10F1 (monomeric anti-DR5 NB construct) (VHH, llama VHH; periplasmic extract or purified monovalent material from E. coli; not shown: C-terminal c-myc tag and (His)6 tag coded by the vector) VHH: EVQLVESGGGLVQPGGSLRLSCAASGFTFSRYWMYWVRQAPGKGLEWVSAINSGGGDTYYRDSVRGRFTISRDNFKNTLYLQMNSLKSEDTAVYYCAKAEGPPTFSLIRTMTVDPGAQGTQVTVSS | 1630 |
| 7A12 (monomeric anti-DR5 NB construct) (VHH, llama VHH; periplasmic extract or purified monovalent material from E. coli; not shown: C-terminal c-myc tag and (His)6 tag coded by the vector) VHH: EVQLVESGGGLVQAGGSLRLSCAASGRTFSNYAMGWFRQAPGKEREFVAALNWSGGSTYYVDSVKGRFTISRDNAKNTVYLQMNSLKPEDTAVYYCAAAGSFSLGGRPYGDDYWGKGTLVTVSS | 24500 |

Source: patent US20150259426A1
